Tested on: A549
Assay: Cytotoxicity against human A549 cells after 24 hrs by WST-1 assay
Assay type: functional
Details: A549, 24 h
value kind: GI50 (nM)

>>> value_measured("COc1cc2c(cc1O)N=C[C@@H]1CCCN1C2=O")
160
>>> value_measured("COc1ccc(-c2nnc(-c3ccc(F)cc3)o2)cc1OCCCCCOc1cc2c(cc1OC)C(=O)N1CCC[C@H]1C=N2")
140
>>> value_measured("COc1ccc(-c2nnc(-c3ccc(C(F)(F)F)cc3)o2)cc1OCCCCOc1cc2c(cc1OC)C(=O)N1CCC[C@H]1C=N2")
110
>>> value_measured("COc1ccc(-c2nnc(-c3ccc(F)cc3)o2)cc1OCCCCOc1cc2c(cc1OC)C(=O)N1CCC[C@H]1C=N2")
290

###

Tested on: A-375
Assay: Cell cycle arrest in human A375 cells assessed as accumulation at Sub-G1 phase after 24 hrs by FACS flow cytometry
Design: concentration or dose not given beside the values
value kind: Activity (%)

>>> value_measured("COc1ccc(-c2nnc(-c3ccc(C(F)(F)F)cc3)o2)cc1OCCCOc1cc2c(cc1OC)C(=O)N1CCC[C@H]1C=N2")
17.93
>>> value_measured("COc1cc2c(cc1O)N=C[C@@H]1CCCN1C2=O")
15.33
>>> value_measured("COc1ccc(-c2nnc(-c3ccc(OC)c(OCCCCCOc4cc5c(cc4OC)C(=O)N4CCC[C@H]4C=N5)c3)o2)cc1OC")
36.66
>>> value_measured("COc1ccc(-c2nnc(-c3cc(OC)c(OC)c(OC)c3)o2)cc1OCCCCCOc1cc2c(cc1OC)C(=O)N1CCC[C@H]1C=N2")
13.76
>>> value_measured("COc1ccc(-c2nnc(-c3ccc(F)cc3)o2)cc1OCCCOc1cc2c(cc1OC)C(=O)N1CCC[C@H]1C=N2")
6.79

###

Tested on: Calf thymus DNA
Experiment: Binding affinity to calf thymus DNA assessed as change in melting temperature after 18 hrs
Assay type: nucleic-acid assay
Settings: Bos taurus
Under this convention, YES denotes ΔTm strictly below 2 °C and NO denotes ΔTm at or above 2 °C.

>>> label("COc1ccc(-c2nnc(-c3ccc(C(F)(F)F)cc3)o2)cc1OCCCOc1cc2c(cc1OC)C(=O)N1CCC[C@H]1C=N2")
"NO"
>>> label("COc1ccc(-c2nnc(-c3ccc(OC)c(OCCCCOc4cc5c(cc4OC)C(=O)N4CCC[C@H]4C=N5)c3)o2)cc1OC")
"NO"
>>> label("COc1ccc(-c2nnc(-c3ccc(F)cc3)o2)cc1OCCCCCOc1cc2c(cc1OC)C(=O)N1CCC[C@H]1C=N2")
"YES"
>>> label("COc1ccc(-c2nnc(-c3ccc(OC)c(OCCCOc4cc5c(cc4OC)C(=O)N4CCC[C@H]4C=N5)c3)o2)cc1OC")
"YES"
>>> label("COc1ccc(-c2nnc(-c3ccc(F)cc3)o2)cc1OCCCCOc1cc2c(cc1OC)C(=O)N1CCC[C@H]1C=N2")
"NO"
>>> label("COc1ccc(-c2nnc(-c3ccc(C(F)(F)F)cc3)o2)cc1OCCCCOc1cc2c(cc1OC)C(=O)N1CCC[C@H]1C=N2")
"NO"
>>> label("COc1ccc(-c2nnc(-c3cc(OC)c(OC)c(OC)c3)o2)cc1OCCCOc1cc2c(cc1OC)C(=O)N1CCC[C@H]1C=N2")
"YES"
